- EXPERIMENTAL SYSTEM: RIPK1 (Homo sapiens (Human), UniProt Q13546)
- Sequence (Q13546 whole entry, species assumed): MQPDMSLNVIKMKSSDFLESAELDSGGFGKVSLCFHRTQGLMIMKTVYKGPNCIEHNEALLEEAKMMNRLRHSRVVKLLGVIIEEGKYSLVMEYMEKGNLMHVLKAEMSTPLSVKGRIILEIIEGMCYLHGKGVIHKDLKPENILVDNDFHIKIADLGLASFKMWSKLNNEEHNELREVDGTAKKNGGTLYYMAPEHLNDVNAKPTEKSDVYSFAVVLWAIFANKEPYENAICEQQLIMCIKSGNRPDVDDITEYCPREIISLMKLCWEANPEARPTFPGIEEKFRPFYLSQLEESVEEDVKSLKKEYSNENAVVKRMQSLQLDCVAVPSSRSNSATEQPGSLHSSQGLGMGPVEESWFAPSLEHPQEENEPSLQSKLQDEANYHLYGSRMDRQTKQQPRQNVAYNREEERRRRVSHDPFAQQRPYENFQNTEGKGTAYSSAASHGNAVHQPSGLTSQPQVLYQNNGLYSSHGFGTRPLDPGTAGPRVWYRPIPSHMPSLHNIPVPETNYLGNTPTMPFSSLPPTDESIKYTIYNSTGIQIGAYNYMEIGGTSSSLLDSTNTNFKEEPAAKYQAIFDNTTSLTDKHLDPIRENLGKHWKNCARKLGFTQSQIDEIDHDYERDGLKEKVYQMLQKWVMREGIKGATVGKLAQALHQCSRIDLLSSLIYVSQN
- ASSAY NOTES: biochemical
- Type: biochemical
- EXPERIMENTAL SETUP: RIPK1 enzyme 31 ng/well, 30° C. for 30 minutes, luminescence; read-out: RIPK1 ADP-Glo Kinase (IC50)
OBSERVATION TYPE: log10 of IC50 (log10 of the value in nM)
# values: log10(IC50), units nM

COMPOUND: O=C(NC1CCc2ccccc2-n2ccnc21)c1n[nH]c(Cc2c(Cl)cccc2Cl)n1 (racemic)
log10 of IC50: 2.59
//
COMPOUND: O=C(N[C@H]1COc2ccccc2-n2c1noc2=O)c1cc(Cc2ccccc2)on1
log10 of IC50: 2.04

Entry under review: O=C(N[C@H]1COc2ncccc2-n2c1noc2=O)c1cc(Cc2ccccc2)on1 . Reported log10 of IC50?
3.64

Now this one: Cc1cccc(C)c1Cn1cnc(C(=O)N[C@H]2COc3ccccc3-n3nnnc32)n1
3.27

And for O=C(NC1CCc2ccccc2-n2ccnc21)c1cc(Cc2ccccc2)on1 (racemic) ?
1.42

Next up: O=C(NC1CCc2ccccc2-n2ccnc21)c1ncn(Cc2ccccc2F)n1 (racemic)
1.22

Entry O=C(N[C@H]1COc2ccccc2-n2c1noc2=O)c1n[nH]c(Cc2ccccc2)n1 please
1.76

Next compound: Cn1nc2n(c1=O)-c1ccccc1CCC2NC(=O)c1ncn(Cc2c(Cl)cccc2Cl)n1 (racemic)
3.11
